molecular target: Fibrinogen beta chain (Homo sapiens); assay: inhibitors of Tn6 peptide binding to fibrin DD(E), primary screen, biochemical, fluorescence polarization, human fibrin, Tn6 probe (AID 720509); settings: Fibrin DD(E) TRITC-Tn6 fluorescence polarization displacement; at 8.3 µM;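 also: 0% = median of all compound wells on the plate and 100% = blocking peptide control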
Out of some 370,000 compounds screened, about 760 (0.21%) were called active.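 The calls were made as follows: active = inhibition above a per-campaign cutoff: mean of compounds within control limits plus 3 SD (cut at about 15% in these data); inactive = the rest.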 The list comes from a sample in which actives are over-represented; it also holds close analogues and randomly drawn compounds.
Would you mind answering with one of these outcomes? active, inactive

Recorded results for 5 compounds are shown here.
compound	label_class
NS(=O)(=O)c1ccc(CNC(=O)c2ccc(Cl)cc2[N+](=O)[O-])cc1	inactive
CCOCCCNC(=O)c1c[nH]c2cc(C)ccc2c1=O	inactive
Cc1ccc(OCCNC(=O)c2cccc(S(=O)(=O)N3CCN(Cc4ccccc4)CC3)c2)cc1	inactive
COc1cccc(NC(=O)C2(C)CCN2Cc2ccccc2Cl)c1 (stereo not drawn)	inactive
O=C(NCCCNc1ccc([N+](=O)[O-])cc1Cl)c1ccccc1F	inactive

Assay outcome for Cc1cccc(N(C(=O)c2csnn2)C(C(=O)NCc2ccccc2)c2ccncc2)c1 (stereo not drawn) : what was it?
inactive

// param item: COc1ccc(NS(=O)(=O)c2cc3c(cc2C)N(C(C)=O)CCO3)cc1 ; yields the recorded call
inactive

Could you kindly confirm the outcome this assay logged for CCC1C(=O)NCCN1C(=O)c1ccc2nc(Cc3ccc(OC)cc3)oc2c1 (stereo not drawn) ?
active

What classification did CCCC1(C(=O)OCC)NC(c2ccc(N(C)C)cc2)C2C(=O)N(c3ccc4c(c3)OCCO4)C(=O)C21 (stereo not drawn) end up with in this test?
inactive

What is the recorded call for this compound in the test? Cc1cccc(NS(=O)(=O)c2cc(Cl)ccc2Cl)n1
inactive

Can you look up the reported call for S=c1[nH]cc(-c2ccc(Cl)cc2)n1-c1ccccc1 for me?
inactive

What did this assay record as the result for CSc1ccccc1OCc1cc(C(=O)N2C[C@H]3CC[C@H]2C3)no1 ?
inactive

Recorded test call requested for CC(C)CSc1nnc(-c2cccnc2)n1Cc1ccccc1
inactive

// param item: Cc1ccc(CNC(=O)Cc2cn(C)c3ccccc23)cc1 ; yields the recorded call
inactive

Any idea what this test logged for Cc1cc(=O)[nH]c(SCC(=O)Nc2ccc(F)cc2F)n1 ?
inactive

Which outcome was assigned to Cc1nn(C)cc1N1C(=O)c2cccc3c(N)ccc(c23)C1=O in this test?
active

Which result was noted for this compound in the test: CC[C@@H]1CC2=C(C(=O)OC(C)(C)O2)[C@@H](CC)O1
inactive

Outcome? CC(C)CCNC(=O)CC1C(=O)N(Cc2ccccc2)C(C)c2nc3ccccc3n21 (stereo not drawn)
inactive

// return assay outcome for COc1ccc(-n2cnnc2SCC(=O)Nc2cccc(S(N)(=O)=O)c2)cc1
inactive

What is the recorded call for this compound in the test? Cc1cc(=O)oc(C)c1C(=O)NCCN(C)Cc1ccccc1
inactive

Status in this test for COc1ccccc1C(=O)COC(=O)CSCC(=O)Nc1cc(C)on1 ?
inactive

====

biological target: Fibrinogen beta chain (Homo sapiens); assay: inhibitors of Tn6 peptide binding to fibrin DD(E), primary screen, biochemical, fluorescence polarization, human fibrin, Tn6 probe (AID 720509); conditions: Fibrin DD(E) TRITC-Tn6 fluorescence polarization displacement; at 8.3 µM; stronger effect = higher value;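 also: 0% = median of all compound wells on the plate and 100% = blocking peptide control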
The campaign covered roughly 370,000 compounds. About 760 (0.21%) were called active. The sample holds actives, similar compounds and a random draw of the others, so the mix is not that of the screen.
measurement_kind: inhibition (%)
Report as a plain number; the unit % is understood.

// known answers, use as guide
molecule	test_system	inhibition (%)
O=C(OCc1cc(=O)n2ccsc2n1)C1(c2ccc(Cl)cc2)CC1	Fibrinogen beta chain (Homo sapiens)	4.84
COc1ccc(N(CC(=O)NC2CCCCC2)S(=O)(=O)c2c(C)[nH]c(=O)[nH]c2=O)cc1	Fibrinogen beta chain (Homo sapiens)	6
CN(C)CCCn1c(N)c(C#N)c2nc(C#N)c(C#N)nc21	Fibrinogen beta chain (Homo sapiens)	15.8
O=c1c2ccccc2nc2n1C(CSCc1cccc(C(F)(F)F)c1)CS2 (configuration not stated)	Fibrinogen beta chain (Homo sapiens)	2.51

Supply recorded inhibition for O=C(NCC1CCCO1)c1ccccc1-c1nc(-c2ccccc2Cl)no1 (configuration not stated) here.
8.29

Quickly give me recorded inhibition for CCCNC(=O)c1cc(C2CCCN(C(=O)c3ccc4c(c3)CCO4)C2)on1 (configuration not stated)
2.19

Kindly indicate its recorded inhibition. Item: CSC1=NN(c2ccccc2)CN(c2ccccc2)N1C
-0.87
